The reported measurements were obtained from PubChem BioAssay AID1963861.

Tested on: 885724-159-R-J1-PDC KRAS PDC multicell spheroid viability
protocol notes: Anticancer human tumor 885724-159-R-J1-PDC patient-derived pancreatic adenocarcinoma cell line growth inhibition [KRAS2]
details: second compound 10 µM; first compound 3.16 µM; stronger effect = lower value
quantity name: viability, T/C (%)
Give your result in % as a bare value.

Reported viability, T/C for O=C(c1cc(Cc2n[nH]c(=O)c3ccccc23)ccc1F)N1CCN(C(=O)C2CC2)CC1 + CNCc1ccccc1-c1csc(C(C)Nc2nc(C)nc3cc(OC)c(OC)cc23)c1 was 0.28

Entry CC1(C)CCC(CN2CCN(c3ccc(C(=O)NS(=O)(=O)c4ccc(NCC5CCOCC5)c([N+](=O)[O-])c4)c(Oc4cnc5[nH]ccc5c4)c3)CC2)=C(c2ccc(Cl)cc2)C1 + CC1OCC2(CCN(c3cnc(Sc4ccnc(N)c4Cl)c(N)n3)CC2)C1N — recorded viability, T/C = 30.4

viability, T/C in this record for Cn1nccc1Nc1nccc(-c2cc3c(s2)C(C)(C)N(CCN2CCOCC2)C3=O)n1 + CC1OCC2(CCN(c3cnc(Sc4ccnc(N)c4Cl)c(N)n3)CC2)C1N : 22.4

Summary for this compound, CC1(C)CCC(CN2CCN(c3ccc(C(=O)NS(=O)(=O)c4ccc(NCC5CCOCC5)c([N+](=O)[O-])c4)c(Oc4cnc5[nH]ccc5c4)c3)CC2)=C(c2ccc(Cl)cc2)C1 + C=CC(=O)N1CCN(c2nc(=O)n(-c3c(C)ccnc3C(C)C)c3nc(-c4c(O)cccc4F)c(F)cc23)C(C)C1 : viability, T/C is 65.3

# compound O=C(c1cc(Cc2n[nH]c(=O)c3ccccc23)ccc1F)N1CCN(C(=O)C2CC2)CC1 + CC1OCC2(CCN(c3cnc(Sc4ccnc(N)c4Cl)c(N)n3)CC2)C1N ; its viability, T/C = 70.7

// viability, T/C value for CCNC(=O)CC1N=C(c2ccc(Cl)cc2)c2cc(OC)ccc2-n2c(C)nnc21 (stereo not drawn) + COc1cc2nc(C)nc(NC(C)c3cc(N)cc(C(F)(F)F)c3)c2cc1OC1CCOC1 : 20.1

compound CCNC(=O)CC1N=C(c2ccc(Cl)cc2)c2cc(OC)ccc2-n2c(C)nnc21 (stereo not drawn) + C=CC(=O)N1CCN(c2nc(=O)n(-c3c(C)ccnc3C(C)C)c3nc(-c4c(O)cccc4F)c(F)cc23)C(C)C1 , viability, T/C observed: 39.2

Looking up COc1cc(Nc2ncc3c(n2)-c2ccc(Cl)cc2C(c2c(F)cccc2OC)=NC3)ccc1C(=O)O + CNCc1ccccc1-c1csc(C(C)Nc2nc(C)nc3cc(OC)c(OC)cc23)c1 , I found its viability, T/C recorded as 0.16

viability, T/C in this record for CC(C)NCC(C(=O)N1CCN(c2ncnc3c2C(C)CC3O)CC1)c1ccc(Cl)cc1 (stereo not drawn) + CNCc1ccccc1-c1csc(C(C)Nc2nc(C)nc3cc(OC)c(OC)cc23)c1 : 0.16

Data point: O=C(c1cc(Cc2n[nH]c(=O)c3ccccc23)ccc1F)N1CCN(C(=O)C2CC2)CC1 + C=CC(=O)N1CCN(c2nc(=O)n(-c3c(C)ccnc3C(C)C)c3nc(-c4c(O)cccc4F)c(F)cc23)C(C)C1 ; viability, T/C = 90.9

Entry COC(=O)c1ccc2c(C(=Nc3ccc(N(C)C(=O)CN4CCN(C)CC4)cc3)c3ccccc3)c(O)[nH]c2c1 + CC1OCC2(CCN(c3cnc(Sc4ccnc(N)c4Cl)c(N)n3)CC2)C1N ; viability, T/C = 2.07

// viability, T/C lookup, compound = CC(C)NCC(C(=O)N1CCN(c2ncnc3c2C(C)CC3O)CC1)c1ccc(Cl)cc1 (stereo not drawn) + CC1OCC2(CCN(c3cnc(Sc4ccnc(N)c4Cl)c(N)n3)CC2)C1N , result: 36.2

Value of measured viability, T/C for the entry COC(=O)c1ccc2c(C(=Nc3ccc(N(C)C(=O)CN4CCN(C)CC4)cc3)c3ccccc3)c(O)[nH]c2c1 + COc1cc2nc(C)nc(NC(C)c3cc(N)cc(C(F)(F)F)c3)c2cc1OC1CCOC1 : 0.75

Input CC1OCC2(CCN(c3cnc(Sc4ccnc(N)c4Cl)c(N)n3)CC2)C1N (stereo not drawn) + COc1cc2nc(C)nc(NC(C)c3cc(N)cc(C(F)(F)F)c3)c2cc1OC1CCOC1 . Output viability, T/C: 13.5

GET /value?item= CC1(C)CCC(CN2CCN(c3ccc(C(=O)NS(=O)(=O)c4ccc(NCC5CCOCC5)c([N+](=O)[O-])c4)c(Oc4cnc5[nH]ccc5c4)c3)CC2)=C(c2ccc(Cl)cc2)C1 + CNCc1ccccc1-c1csc(C(C)Nc2nc(C)nc3cc(OC)c(OC)cc23)c1 &field=viability, T/C returns 0.17

Per the records, this compound ( CC(=O)OC12COC1CC(O)C1(C)C(=O)C(O)C3=C(C)C(OC(=O)C(O)C(NC(=O)OC(C)(C)C)c4ccccc4)CC(O)(C(OC(=O)c4ccccc4)C21)C3(C)C (stereo not drawn) + CNCc1ccccc1-c1csc(C(C)Nc2nc(C)nc3cc(OC)c(OC)cc23)c1 ) has viability, T/C equal to 0.28

In plain terms, COc1cc(Nc2ncc3c(n2)-c2ccc(Cl)cc2C(c2c(F)cccc2OC)=NC3)ccc1C(=O)O + CC1OCC2(CCN(c3cnc(Sc4ccnc(N)c4Cl)c(N)n3)CC2)C1N has a documented viability, T/C of 70.9

Sure, the documented viability, T/C for COc1cc2nccc(Oc3ccc(NC(=O)C4(C(=O)Nc5ccc(F)cc5)CC4)cc3)c2cc1OC + C=CC(=O)N1CCN(c2nc(=O)n(-c3c(C)ccnc3C(C)C)c3nc(-c4c(O)cccc4F)c(F)cc23)C(C)C1 is 35.8

###

Test system: 885724-159-R-J1-PDC KRAS PDC multicell spheroid viability
protocol notes: Anticancer human tumor 885724-159-R-J1-PDC cell line growth inhibition [KRAS2];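 further: spheroids exposed to agents for 7 days before readout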
details: second compound 0.316 µM; first compound 3.16 µM; stronger effect = lower value
quantity name: viability, T/C (%)
Note: unit % is implicit; provide only the numeric part.

Measured viability, T/C of COC(=O)c1ccc2c(C(=Nc3ccc(N(C)C(=O)CN4CCN(C)CC4)cc3)c3ccccc3)c(O)[nH]c2c1 + CNCc1ccccc1-c1csc(C(C)Nc2nc(C)nc3cc(OC)c(OC)cc23)c1 : 6.06

The reported viability, T/C of the molecule CCNC(=O)CC1N=C(c2ccc(Cl)cc2)c2cc(OC)ccc2-n2c(C)nnc21 (stereo not given) + C=CC(=O)N1CCN(c2nc(OCC3CCCN3C)nc3c2CCN(c2cccc4cccc(C)c24)C3)CC1CC#N was 45

For CC(=O)OC12COC1CC(O)C1(C)C(=O)C(O)C3=C(C)C(OC(=O)C(O)C(NC(=O)OC(C)(C)C)c4ccccc4)CC(O)(C(OC(=O)c4ccccc4)C21)C3(C)C (stereo not given) + CNCc1ccccc1-c1csc(C(C)Nc2nc(C)nc3cc(OC)c(OC)cc23)c1 the molecule record lists viability, T/C as 100

viability, T/C recorded for this molecule, O=C(c1cc(Cc2n[nH]c(=O)c3ccccc23)ccc1F)N1CCN(C(=O)C2CC2)CC1 + CNCc1ccccc1-c1csc(C(C)Nc2nc(C)nc3cc(OC)c(OC)cc23)c1 , is 94.6

Input CC(C)NCC(C(=O)N1CCN(c2ncnc3c2C(C)CC3O)CC1)c1ccc(Cl)cc1 (stereo not given) + C=CC(=O)N1CCN(c2nc(=O)n(-c3c(C)ccnc3C(C)C)c3nc(-c4c(O)cccc4F)c(F)cc23)C(C)C1 . Output viability, T/C: 77.9

###

Can you tell me viability, T/C for the items I'm about to list?
System: 885724-159-R-J1-PDC KRAS PDC multicell spheroid viability
protocol notes: Anticancer human tumor 885724-159-R-J1-PDC cell line growth inhibition [KRAS2];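 further: spheroids exposed to agents for 7 days before readout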
details: second compound 0.1 µM; first compound 0.000316 µM; stronger effect = lower value

Reading of viability, T/C for Cn1ncnc1[C@H]1c2n[nH]c(=O)c3cc(F)cc(c23)N[C@@H]1c1ccc(F)cc1 + CC1OCC2(CCN(c3cnc(Sc4ccnc(N)c4Cl)c(N)n3)CC2)C1N with 885724-159-R-J1-PDC KRAS PDC multicell spheroid viability: 84.8%

Field viability, T/C (system: 885724-159-R-J1-PDC KRAS PDC multicell spheroid viability) for entry Cn1ncnc1[C@H]1c2n[nH]c(=O)c3cc(F)cc(c23)N[C@@H]1c1ccc(F)cc1 + COc1cc2nc(C)nc(NC(C)c3cc(N)cc(C(F)(F)F)c3)c2cc1OC1CCOC1 = 104%

Measured on 885724-159-R-J1-PDC KRAS PDC multicell spheroid viability, CC(=O)Nc1cccc(-n2c(=O)n(C3CC3)c(=O)c3c(Nc4ccc(I)cc4F)n(C)c(=O)c(C)c32)c1 + C=CC(=O)N1CCN(c2nc(OCC3CCCN3C)nc3c2CCN(c2cccc4cccc(C)c24)C3)CC1CC#N has a documented viability, T/C of 84%

Entry CN(C)C/C=C/C(=O)Nc1cc2c(Nc3ccc(F)c(Cl)c3)ncnc2cc1O[C@H]1CCOC1 + C=CC(=O)N1CCN(c2nc(OCC3CCCN3C)nc3c2CCN(c2cccc4cccc(C)c24)C3)CC1CC#N , 885724-159-R-J1-PDC KRAS PDC multicell spheroid viability data, viability, T/C value: 109%

Log: 885724-159-R-J1-PDC KRAS PDC multicell spheroid viability, compound CC(C)n1nc(-c2ccc3oc(N)nc3c2)c2c(N)ncnc21 + C=CC(=O)N1CCN(c2nc(=O)n(-c3c(C)ccnc3C(C)C)c3nc(-c4c(O)cccc4F)c(F)cc23)C(C)C1 , viability, T/C = 97.8%

For the compound CC(C)n1nc(-c2ccc3oc(N)nc3c2)c2c(N)ncnc21 + C=CC(=O)N1CCN(c2nc(OCC3CCCN3C)nc3c2CCN(c2cccc4cccc(C)c24)C3)CC1CC#N , the measured viability, T/C on 885724-159-R-J1-PDC KRAS PDC multicell spheroid viability was 88.1%

Observed viability, T/C, 885724-159-R-J1-PDC KRAS PDC multicell spheroid viability, CN(C)C/C=C/C(=O)Nc1cc2c(Nc3ccc(F)c(Cl)c3)ncnc2cc1O[C@H]1CCOC1 + C=CC(=O)N1CCN(c2nc(=O)n(-c3c(C)ccnc3C(C)C)c3nc(-c4c(O)cccc4F)c(F)cc23)C(C)C1 : 116%

Form field, viability, T/C with 885724-159-R-J1-PDC KRAS PDC multicell spheroid viability, item CC(=O)Nc1cccc(-n2c(=O)n(C3CC3)c(=O)c3c(Nc4ccc(I)cc4F)n(C)c(=O)c(C)c32)c1 + COc1cc2nc(C)nc(NC(C)c3cc(N)cc(C(F)(F)F)c3)c2cc1OC1CCOC1 : 73%

Case CN(C)C/C=C/C(=O)Nc1cc2c(Nc3ccc(F)c(Cl)c3)ncnc2cc1O[C@H]1CCOC1 + COc1cc2nc(C)nc(NC(C)c3cc(N)cc(C(F)(F)F)c3)c2cc1OC1CCOC1 , 885724-159-R-J1-PDC KRAS PDC multicell spheroid viability, viability, T/C recorded as 116%

Bench note, 885724-159-R-J1-PDC KRAS PDC multicell spheroid viability: CC(C)n1nc(-c2ccc3oc(N)nc3c2)c2c(N)ncnc21 + CNCc1ccccc1-c1csc(C(C)Nc2nc(C)nc3cc(OC)c(OC)cc23)c1 , viability, T/C reads 87%

Simply: CN(C)C/C=C/C(=O)Nc1cc2c(Nc3ccc(F)c(Cl)c3)ncnc2cc1O[C@H]1CCOC1 + CNCc1ccccc1-c1csc(C(C)Nc2nc(C)nc3cc(OC)c(OC)cc23)c1 , 885724-159-R-J1-PDC KRAS PDC multicell spheroid viability, viability, T/C = 104%
